test system: Punta Toro virus; experiment: Antiviral activity against Punta Toro virus infected Vero cells assessed as inhibition of virus-induced cytopathicity; assay type: functional, organism-based
metric: EC50

compound=O=C(N/N=C/c1ccccc1Br)c1cccnc1 readout_value="> 100 µg/mL"
compound=O=C(N/N=C/c1ccc([N+](=O)[O-])cc1)c1cccnc1 readout_value="> 0.8 µg/mL"
compound=COc1ccc(/C=N/NC(=O)c2cccnc2)cc1 readout_value="> 100 µg/mL"
compound=COc1cc(/C=N/NC(=O)c2cccnc2)ccc1O readout_value="> 100 µg/mL"
compound=O=C(N/N=C/c1ccccc1[N+](=O)[O-])c1cccnc1 readout_value="> 100 µg/mL"
compound=CCOc1cc(/C=N/NC(=O)c2cccnc2)ccc1O readout_value="> 100 µg/mL"
